# assay-remarks: folding stability dG unfold from trypsin proteolysis; higher = more stable
Tick Yes if folding stability dG unfold is 5 kJ/mol or greater. Tick No if folding stability dG unfold is less than 5 kJ/mol.

>>> qualitative_label("SAGGSAGGSKTIVITIEPNVKTPEQLLELLKKIRELSKPGEKIVIIASPEVLEALKKAGLIEESAGGSAGGS [r12_992_TrROS_Hall]")
"Yes"
>>> qualitative_label("SAGGGSSYTLLSESTSTDPATGATLTTTTYRAPDGTIYYDSTLTAPDGTTTGTATAVDPDGTPVTIALSAGG [r13_573_JUSTAS]")
"Yes"
>>> qualitative_label("SAGGSAMFKSPSDKYFEPIAVIDLEKASPETLKALLEENPGKLLVIPKSTGKPRLIPAEELLELLGSAGGSA [r15_904_TrMRF]")
"No"
>>> qualitative_label("SAGGSAPKTVTFTTPKGYPITVTPGDRTVTLTHPDRPLATFDVPPDVPTFTITLPDGDTATITVDDSAGGSA [r2_385_TrMRF]")
"No"

[ask] Threshold query (folding stability dG unfold >= 5 kJ/mol) on SAGGSAGGSAGGMVIERPLPNGEPLLVELGRPASAPARVTVPNPGRPLGTITSLEELEERSAGGSAGGSAGG [r7_72_TrMRF]
[reply] No

Data origin: the supplement of paper PMC12764529
